measurementTarget: ERBB2 (human)
assayOverview: Free Choice Kinase Assay Projects, Flashplate
testConditions: compound 10.0 µM; ATP 1 µM
propertyMeasured: residual activity (%)

1. CSc1nc(-c2ccnc(N(C(=O)C3CC3)C(=O)C3CC3)c2)c(-c2ccc(F)cc2)n1C = 26

1. Fc1ccc(-c2[nH]c(SCc3ccccc3)nc2-c2ccnc(F)c2)cc1
2. CSc1nc(-c2ccnc(F)c2)c(-c2ccc(F)cc2)[nH]1
Which of the two gives a bigger number for residual activity: 1 or 2 ? Label of pick, please. 2
(2: 18%, 1: 9%)

A. Fc1ccc(-c2[nH]c(CCc3ccccc3)nc2-c2ccncc2)cc1
B. CSc1nc(-c2ccnc(NC(C)=O)c2)c(-c2ccc(F)cc2)n1C
C. CSc1nc(-c2ccnc(NC(=O)C3CC3)c2)c(-c2ccc(F)cc2)n1C
D. Fc1ccc(-c2[nH]c(/C=C/c3ccccc3)nc2-c2ccncc2)cc1
E. CSc1nc(-c2ccnc(NC(=O)C3CCCC3)c2)c(-c2ccc(F)cc2)n1C
// sort entries: residual activity, high to low # output: labels, in the requested order E, B, C, D, A

1. Oc1ccc(CSc2nc(-c3ccncc3)c(-c3ccc(F)cc3)[nH]2)cc1
2. On1c(CCc2ccccc2)nc(-c2ccncc2)c1-c1ccc(F)cc1
Which of the two gives a bigger number for residual activity: 1 or 2 ? Label of pick, please. 1
(1: 22%, 2: 2%)
